# Tested on: HCC-15
# Assay Explanation: relative viability (nuclei count vs DMSO), 5 days (fraction); higher = more cells survive
# Details: first compound 0.1 µM
Recorded measurements of relative viability, one per entry
Would you mind answering with just the numeric figure?

Compound	relative viability
NC(=O)Nc1cc(-c2cccc(F)c2)sc1C(=O)N[C@H]1CCCNC1 [AZD7762] + CS(=O)(=O)CCNCc1ccc(-c2ccc3ncnc(Nc4ccc(OCc5cccc(F)c5)c(Cl)c4)c3c2)o1 [Lapatinib] (partner 2 µM)	0.807
NC(=O)Nc1cc(-c2cccc(F)c2)sc1C(=O)N[C@H]1CCCNC1 [AZD7762] + N=C(N)NC(=N)NCCc1ccccc1 [Phenformin] (partner 250 µM)	0.432
NC(=O)Nc1cc(-c2cccc(F)c2)sc1C(=O)N[C@H]1CCCNC1 [AZD7762] + CC1(C)CCC(c2ccc(Cl)cc2)=C(CN2CCN(c3ccc(C(=O)NS(=O)(=O)c4ccc(N[C@H](CCN5CCOCC5)CSc5ccccc5)c(S(=O)(=O)C(F)(F)F)c4)cc3)CC2)C1 [Navitoclax] (partner 0.5 µM)	0.771
NC(=O)Nc1cc(-c2cccc(F)c2)sc1C(=O)N[C@H]1CCCNC1 [AZD7762] + C[C@]1(O)C[C@@H](c2nc(-c3ccc4ccc(-c5ccccc5)nc4c3)c3c(N)nccn32)C1 [Linsitinib] (partner 1 µM)	0.915

// returns reported relative viability for input NC(=O)Nc1cc(-c2cccc(F)c2)sc1C(=O)N[C@H]1CCCNC1 [AZD7762] + Cc1cc(Nc2cc(N3CCN(C)CC3)nc(Sc3ccc(NC(=O)C4CC4)cc3)n2)n[nH]1 [Tozasertib] (partner 0.1 µM) 0.511

###

# System: NCI-H1299
# Assay Explanation: relative viability (nuclei count vs DMSO), 5 days (fraction); higher = more cells survive
# Details: first compound 1.265 µM
Endpoint Name: relative viability

Consider the following illustrative entries.
Compound	relative viability
O=C(O)c1ccc(-c2c[nH]c3ncc(-c4ccccc4)cc23)cc1C1CCCC1 + O=C(c1cc(Cc2n[nH]c(=O)c3ccccc23)ccc1F)N1CCN(C(=O)C2CC2)CC1 [Olaparib] (partner 8 µM)	0.821
O=C(O)c1ccc(-c2c[nH]c3ncc(-c4ccccc4)cc23)cc1C1CCCC1 + COc1cc2c(Oc3ccc(NC(=O)C4(C(=O)Nc5ccc(F)cc5)CC4)cc3F)ccnc2cc1OCCCN1CCOCC1 [Foretinib] (partner 0.25 µM)	0.956
O=C(O)c1ccc(-c2c[nH]c3ncc(-c4ccccc4)cc23)cc1C1CCCC1 + C[C@]1(O)C[C@@H](c2nc(-c3ccc4ccc(-c5ccccc5)nc4c3)c3c(N)nccn32)C1 [Linsitinib] (partner 1 µM)	0.918

Next:
// returns reported relative viability for input O=C(O)c1ccc(-c2c[nH]c3ncc(-c4ccccc4)cc23)cc1C1CCCC1 + CC1(C)CCC(c2ccc(Cl)cc2)=C(CN2CCN(c3ccc(C(=O)NS(=O)(=O)c4ccc(N[C@H](CCN5CCOCC5)CSc5ccccc5)c(S(=O)(=O)C(F)(F)F)c4)cc3)CC2)C1 [Navitoclax] (partner 0.5 µM) 0.942

###

# Tested on: NCI-H2009
# Assay Explanation: relative viability (nuclei count vs DMSO), 5 days (fraction); higher = more cells survive
# Details: first compound 0.005 µM
Recorded measurements of relative viability, one per entry
Would you mind answering with just the numeric figure?

// returns reported relative viability for input CC1(C)CCC(c2ccc(Cl)cc2)=C(CN2CCN(c3ccc(C(=O)NS(=O)(=O)c4ccc(N[C@H](CCN5CCOCC5)CSc5ccccc5)c(S(=O)(=O)C(F)(F)F)c4)cc3)CC2)C1 [Navitoclax] + COc1cccc2cc(-c3nc([C@H]4CC[C@H](C(=O)O)CC4)n4ncnc(N)c34)[nH]c12 [OSI-027] (partner 0.5 µM) 0.598

// returns reported relative viability for input CC1(C)CCC(c2ccc(Cl)cc2)=C(CN2CCN(c3ccc(C(=O)NS(=O)(=O)c4ccc(N[C@H](CCN5CCOCC5)CSc5ccccc5)c(S(=O)(=O)C(F)(F)F)c4)cc3)CC2)C1 [Navitoclax] + CS(=O)(=O)CCNCc1ccc(-c2ccc3ncnc(Nc4ccc(OCc5cccc(F)c5)c(Cl)c4)c3c2)o1 [Lapatinib] (partner 2 µM) 0.938

###

# Test system: COR-L 105
# Assay Explanation: relative viability (nuclei count vs DMSO), 5 days (fraction); higher = more cells survive
# Details: first compound 0.08 µM
Recorded measurements of relative viability, one per entry
Would you mind answering with just the numeric figure?

Consider the following illustrative entries.
Molecule	Target Or System	Endpoint Name	Quantitative Result
Oc1nc(-c2ccc(C(F)(F)F)cc2)nc2c1CSCC2 [XAV939] + Nc1nc2[nH]cc(CCc3ccc(C(=O)N[C@@H](CCC(=O)O)C(=O)O)cc3)c2c(=O)[nH]1 [Pemetrexed] (partner 0.2 µM)	COR-L 105	relative viability	1.09
Oc1nc(-c2ccc(C(F)(F)F)cc2)nc2c1CSCC2 [XAV939] + C[C@]1(O)C[C@@H](c2nc(-c3ccc4ccc(-c5ccccc5)nc4c3)c3c(N)nccn32)C1 [Linsitinib] (partner 1 µM)	COR-L 105	relative viability	1

Next:
// returns reported relative viability for input C=C1C(=O)O[C@@H](CCCCCCCC)[C@@H]1C(=O)O [C-75] + O=C(CCCCCCC(=O)Nc1ccccc1)NO [Vorinostat] (partner 1 µM) 0.906

###

Recorded measurements of relative viability, one per entry
# System: NCI-H2405
# Assay Explanation: relative viability (nuclei count vs DMSO), 5 days (fraction); higher = more cells survive
# Details: first compound 0.253 µM

Compound	relative viability
C=C1C(=O)O[C@@H](CCCCCCCC)[C@@H]1C(=O)O [C-75] + COc1cccc2cc(-c3nc([C@H]4CC[C@H](C(=O)O)CC4)n4ncnc(N)c34)[nH]c12 [OSI-027] (partner 0.5 µM)	0.63
C=C1C(=O)O[C@@H](CCCCCCCC)[C@@H]1C(=O)O [C-75] + C[C@@H](Oc1cc(-c2cnn(C3CCNCC3)c2)cnc1N)c1c(Cl)ccc(F)c1Cl [Crizotinib] (partner 1 µM)	0.683

Next:
Recorded relative viability for Oc1nc(-c2ccc(C(F)(F)F)cc2)nc2c1CSCC2 [XAV939] + CCNC(=O)c1noc(-c2cc(C(C)C)c(O)cc2O)c1-c1ccc(CN2CCOCC2)cc1 [Luminespib] (partner 0.01 µM) with NCI-H2405, please? 0.673

###

# Tested on: NCI-H1793
# Assay Explanation: relative viability (nuclei count vs DMSO), 5 days (fraction); higher = more cells survive
# Details: first compound 0.1265 µM
Endpoint Name: relative viability
Would you mind answering with just the numeric figure?

Consider the following illustrative entries.
Compound	Quantitative Result
O=C(O)c1ccc(-c2c[nH]c3ncc(-c4ccccc4)cc23)cc1C1CCCC1 + COc1cccc2cc(-c3nc([C@H]4CC[C@H](C(=O)O)CC4)n4ncnc(N)c34)[nH]c12 [OSI-027] (partner 0.5 µM)	0.362
O=C(O)c1ccc(-c2c[nH]c3ncc(-c4ccccc4)cc23)cc1C1CCCC1 + CC1(C)CCC(c2ccc(Cl)cc2)=C(CN2CCN(c3ccc(C(=O)NS(=O)(=O)c4ccc(N[C@H](CCN5CCOCC5)CSc5ccccc5)c(S(=O)(=O)C(F)(F)F)c4)cc3)CC2)C1 [Navitoclax] (partner 0.5 µM)	0.383
O=C(O)c1ccc(-c2c[nH]c3ncc(-c4ccccc4)cc23)cc1C1CCCC1 + Cc1nc(Nc2ncc(C(=O)Nc3c(C)cccc3Cl)s2)cc(N2CCN(CCO)CC2)n1 [Dasatinib] (partner 0.075 µM)	0.473

Next:
// returns reported relative viability for input O=C(O)c1ccc(-c2c[nH]c3ncc(-c4ccccc4)cc23)cc1C1CCCC1 + CC(=O)Nc1cccc(-n2c(=O)n(C3CC3)c(=O)c3c(Nc4ccc(I)cc4F)n(C)c(=O)c(C)c32)c1 [Trametinib] (partner 0.02 µM) 0.51

###

Recorded measurements of relative viability, one per entry
# Test system: NCI-H2405
# Assay Explanation: relative viability (nuclei count vs DMSO), 5 days (fraction); higher = more cells survive
# Details: first compound 0.4 µM
Would you mind answering with just the numeric figure?

Consider the following illustrative entries.
Molecule	relative viability
O=C(O)c1ccc(-c2c[nH]c3ncc(-c4ccccc4)cc23)cc1C1CCCC1 + CCNC(=O)c1noc(-c2cc(C(C)C)c(O)cc2O)c1-c1ccc(CN2CCOCC2)cc1 [Luminespib] (partner 0.01 µM)	0.579
O=C(O)c1ccc(-c2c[nH]c3ncc(-c4ccccc4)cc23)cc1C1CCCC1 + O=C(CCCCCCC(=O)Nc1ccccc1)NO [Vorinostat] (partner 1 µM)	0.944
O=C(O)c1ccc(-c2c[nH]c3ncc(-c4ccccc4)cc23)cc1C1CCCC1 + CS(=O)(=O)CCNCc1ccc(-c2ccc3ncnc(Nc4ccc(OCc5cccc(F)c5)c(Cl)c4)c3c2)o1 [Lapatinib] (partner 2 µM)	0.868
O=C(O)c1ccc(-c2c[nH]c3ncc(-c4ccccc4)cc23)cc1C1CCCC1 + Cc1nc(Nc2ncc(C(=O)Nc3c(C)cccc3Cl)s2)cc(N2CCN(CCO)CC2)n1 [Dasatinib] (partner 0.075 µM)	0.191

Next:
// returns reported relative viability for input O=C(O)c1ccc(-c2c[nH]c3ncc(-c4ccccc4)cc23)cc1C1CCCC1 + Nc1ncn([C@H]2C[C@H](O)[C@@H](CO)O2)c(=O)n1 [Decitabine] (partner 2 µM) 0.676
